Data provenance: ChEMBL document CHEMBL1140266

Attribute: EC50
# System under test: Peroxisome proliferator-activated receptor alpha (Homo sapiens)
# Sequence (Q07869 whole entry): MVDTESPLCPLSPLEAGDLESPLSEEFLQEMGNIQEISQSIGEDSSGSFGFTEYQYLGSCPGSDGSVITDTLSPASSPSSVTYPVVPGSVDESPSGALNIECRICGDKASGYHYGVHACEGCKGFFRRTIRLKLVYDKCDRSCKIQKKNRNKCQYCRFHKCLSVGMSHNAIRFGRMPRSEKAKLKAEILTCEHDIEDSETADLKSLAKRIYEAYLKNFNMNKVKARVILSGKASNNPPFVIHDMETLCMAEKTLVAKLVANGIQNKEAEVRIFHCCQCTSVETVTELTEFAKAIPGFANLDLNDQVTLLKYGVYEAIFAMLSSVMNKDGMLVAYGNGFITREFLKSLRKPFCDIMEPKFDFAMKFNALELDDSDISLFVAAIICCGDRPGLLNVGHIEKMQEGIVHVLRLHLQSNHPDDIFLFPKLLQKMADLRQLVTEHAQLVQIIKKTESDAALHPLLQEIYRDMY
# Assay type: functional, cell-based, COS-1
# Description: Agonist activity against human PPARalpha in COS-1 cell Gal4 assay
Readout label: EC50 (nM)

>  <Molecular string>
CCC(C)(C)c1ccc(OCCCOc2ccc3c(c2)O[C@@](C)(C(=O)O)CC3)c(Cl)c1

>  <System under test>
Peroxisome proliferator-activated receptor alpha (Homo sapiens)

>  <Display unit>
nM

>  <Reported>
4

$$$$
>  <Molecular string>
C[C@]1(C(=O)O)CCc2ccc(OCCCOc3ccc(C4CCCCC4)cc3Cl)cc2O1

>  <System under test>
Peroxisome proliferator-activated receptor alpha (Homo sapiens)

>  <Display unit>
nM

>  <Reported>
2

$$$$
>  <Molecular string>
CC[C@]1(C(=O)O)CCc2ccc(OCCCOc3ccc(C4CCCCC4)cc3Cl)cc2O1

>  <System under test>
Peroxisome proliferator-activated receptor alpha (Homo sapiens)

>  <Display unit>
nM

>  <Reported>
5

$$$$
>  <Molecular string>
CC[C@]1(C(=O)O)CCc2ccc(OCCCOc3ccc(OC(F)(F)F)cc3Cl)cc2O1

>  <System under test>
Peroxisome proliferator-activated receptor alpha (Homo sapiens)

>  <Display unit>
nM

>  <Reported>
6

$$$$
>  <Molecular string>
C[C@]1(C(=O)O)CCc2ccc(OCCCOc3ccc(C4CCC5(CC4)CC5)cc3Cl)cc2O1

>  <System under test>
Peroxisome proliferator-activated receptor alpha (Homo sapiens)

>  <Display unit>
nM

>  <Reported>
420

$$$$
